Test: in vivo
Parameters: species or system rats
Conditions: male, Sprague-Dawley, rat, iv, 10 mg/kg
Structures can show the parent of a compound that is named as a salt.

{"molecule": "CN[C@@H]1[C@H](O)[C@H](NC)C2O[C@]3(O)C(OC2[C@H]1O)O[C@H](C)C[C@H]3NC(=O)Cc1ccccn1 (stereo partly shown) [Compound 1329, Dihydrochloride]", "MRT": "~5.3 h"}

###

Experiment: Cytotoxicity, MTT cell proliferation assay
Conditions: African green monkey, Vero epithelial cells (ATCC CCL-81)

{"molecule": "CN[C@@H]1[C@H](O)[C@H](NC)[C@H]2O[C@@]3(O)C(=O)C[C@@H](C)O[C@H]3O[C@@H]2[C@H]1O [Spectinomycin, reference compound]", "IC50 at 72 h (µg/mL)": 1030}
{"molecule": "CC[C@@H](CO)NCCN[C@@H](CC)CO", "IC50 at 72 h (µg/mL)": 732}
{"molecule": "[H]/N=C(/N)N[C@H]1[C@H](O)[C@@H](O)[C@H](O[C@@H]2O[C@@H](C)[C@](O)(C=O)[C@H]2O[C@@H]2O[C@@H](CO)[C@H](O)[C@@H](O)[C@@H]2NC)[C@@H](N/C(N)=N\\[H])[C@@H]1O [Streptomycin, reference compound]", "IC50 at 72 h (µg/mL)": 1540}
